pIC50 for assorted molecules
System: Bel-7402
Assay: Antiproliferative activity against human Bel-7402 cells assessed as cell growth inhibition incubated for 48 hrs by MTT assay
Assay type: functional, cell-based
Settings: Bel-7402, 48 h
pIC50: −log10 of the molar value.

{"structure notation": "COc1cc(/C=N/NC(=S)NCCCN2CCOCC2)c(Br)c(Br)c1OC", "pIC50": 4.62}
{"structure notation": "O=C(c1cc(Cc2n[nH]c(=O)c3ccccc23)ccc1F)N1CCN(C(=O)C2CC2)CC1", "pIC50": 4.45}
{"structure notation": "COc1cc(/C=N/NC(=S)Nc2ccc(Cl)cc2)c(Br)c(Br)c1OC", "pIC50": 4.86}
{"structure notation": "Oc1cc(/C=N/NC(=S)Nc2ccccc2)cc(Br)c1O", "pIC50": 4.88}

----------
Listing: Ratio IC50 of selected molecules
Assay: Selectivity index, ratio of IC50 for inhibition of human recombinant N-terminal GST-tagged PARP-2 to IC50 for inhibition of human recombinant GST-tagged PARP-1

{"structure notation": "CCOC(=O)c1ccc(NC(=S)N/N=C/c2cc(OC)c(OC)c(Br)c2Br)cc1", "Ratio IC50": "> 17.2"}
{"structure notation": "COc1cc(/C=N/NC(=S)NCCCN2CCOCC2)c(Br)c(Br)c1OC", "Ratio IC50": "> 5.37"}
{"structure notation": "COc1cc(/C=N/NC(N)=S)c(Br)c(Br)c1OC", "Ratio IC50": "> 33.9"}
{"structure notation": "COc1cc(/C=N/NC(N)=S)c(Br)c(Br)c1O", "Ratio IC50": "> 3.94"}

----------
Assay: Tmax in Sprague-Dawley rat at 10 mg/kg, po by LC/MS/MS analysis
Assay type: ADME, organism-based
Conditions: in vivo

{"structure notation": "COc1cc(/C=N/NC(N)=S)c(Br)c(Br)c1OC", "Tmax [h]": 2.5}

----------
Test: Cytotoxicity against human HL7702 cells assessed as cell growth inhibition at 20 uM incubated for 48 hrs by MTT assay relative to control
Assay type: cell-based
Details: HL7702 (L02) cells
Could you label it fulfilled if measured inhibition at 48 h, 20 µM is 80% or higher, and not fulfilled otherwise?

{"structure notation": "Oc1cc(/C=N/NC(=S)Nc2ccccc2)c(Br)c(Br)c1O", "assigned class": "fulfilled"}
{"structure notation": "COc1cc(/C=N/NC(=S)Nc2ccccc2)ccc1O", "assigned class": "not fulfilled"}
{"structure notation": "COc1cc(/C=N/NC(=S)Nc2ccccc2)c(Br)c(Br)c1O", "assigned class": "not fulfilled"}
{"structure notation": "NC(=S)N/N=C/c1cc(O)c(O)c(Br)c1", "assigned class": "not fulfilled"}
{"structure notation": "CCOC(=O)c1ccc(NC(=S)N/N=C/c2cc(Br)c(OC)c(OC)c2)cc1", "assigned class": "fulfilled"}
{"structure notation": "CNC(=S)N/N=C/c1cc(Br)c(OC)c(OC)c1", "assigned class": "not fulfilled"}
{"structure notation": "COc1cc(/C=N/NC(N)=S)c(Br)c(Br)c1O", "assigned class": "not fulfilled"}
{"structure notation": "COc1cc(/C=N/NC(=S)NCCCN2CCOCC2)cc(Br)c1OC", "assigned class": "not fulfilled"}
{"structure notation": "COc1cc(/C=N/NC(=S)Nc2ccc(Oc3ccccc3)cc2)c(Br)c(Br)c1OC", "assigned class": "not fulfilled"}
{"structure notation": "Oc1cc(/C=N/NC(=S)Nc2ccccc2)cc(Br)c1O", "assigned class": "fulfilled"}
{"structure notation": "COc1ccc(/C=N/NC(N)=S)c(Br)c1O", "assigned class": "not fulfilled"}
{"structure notation": "Oc1ccc(/C=N/NC(=S)Nc2ccccc2)cc1O", "assigned class": "not fulfilled"}
{"structure notation": "COc1cc(/C=N/NC(=S)Nc2ccccc2)c(Br)c(Br)c1OC", "assigned class": "fulfilled"}
{"structure notation": "COc1cc(/C=N/NC(=S)Nc2ccc(Oc3ccccc3)cc2)cc(Br)c1OC", "assigned class": "not fulfilled"}
{"structure notation": "COc1ccc(/C=N/NC(=S)Nc2ccccc2)cc1O", "assigned class": "not fulfilled"}
{"structure notation": "COc1cc(/C=N/NC(=S)Nc2cccc(C(F)(F)F)c2)c(Br)c(Br)c1OC", "assigned class": "not fulfilled"}
{"structure notation": "COc1cc(/C=N/NC(=S)Nc2ccc(Cl)cc2)c(Br)c(Br)c1OC", "assigned class": "fulfilled"}
{"structure notation": "COc1cc(/C=N/NC(=S)Nc2ccc(F)cc2)c(Br)c(Br)c1OC", "assigned class": "fulfilled"}
{"structure notation": "COc1cc(/C=N/NC(=S)Nc2ccccc2)cc(Br)c1OC", "assigned class": "not fulfilled"}
{"structure notation": "CCOC(=O)c1ccc(NC(=S)N/N=C/c2cc(OC)c(OC)c(Br)c2Br)cc1", "assigned class": "fulfilled"}
